test: Measurement of LogP values by HPLC on reversed phase columns (EEC directive 79/831 Annex V.A8); assay type: physicochemical
Marks after values point to notes of the source that are not given here.
# LogP values compiled below

Here are 5 compounds together with their reported answers.
Just so you know, measured LogP for `O=C(CCl)c1ccc(Oc2ccc(Cl)cc2)nc1OC(F)(F)F` came out at 4.51^[a]

Just so you know, measured LogP for OC(Cn1cncn1)c1cnc(Oc2ccccc2)cc1Cl (racemic) came out at 1.92^[a]

Just so you know, measured LogP for `O=C(CCl)c1ccc(Oc2ccc(S(F)(F)(F)(F)F)cc2)nc1Cl` came out at 4.21^[a]

Just so you know, measured LogP for `O=C(Cn1cncn1)c1ccc(Oc2ccc(C(F)(F)F)cc2)nc1C(F)(F)F` came out at 3.04^[a]

Just so you know, measured LogP for OC(Cn1cncn1)c1ccc(Oc2ccc(Cl)cc2)nc1OC(F)(F)F (racemic) came out at 2.92^[a]

Others:
Just so you know, measured LogP for `CC(=O)c1cnc(Oc2ccc(S(F)(F)(F)(F)F)cc2)cc1C(F)(F)F` came out at 4.32^[a]

Just so you know, measured LogP for `CC(=O)c1ccc(Oc2ccc(Cl)cc2)nn1` came out at 2.73^[a]

Just so you know, measured LogP for OC(Cn1cncn1)c1ccc(Oc2ccccc2F)nc1Cl (racemic) came out at 2.08^[a]

Just so you know, measured LogP for OC(Cn1cncn1)(c1ccc(Oc2ccc(Cl)cc2)nc1C(F)(F)F)C1CC1 (stereo not shown) [I.71] came out at 3.35^[a]

Just so you know, measured LogP for CC(O)(Cn1cncn1)c1ccc(Oc2ccc(C(F)(F)F)cc2)nc1C(F)(F)F (stereo not shown) came out at 3.04^[a]

====

test system: Alternaria solani; experiment: Example F: in vivo preventive test on Alternaria test (tomatoes); conditions: 72 h, 100 ppm of active ingredient, preventive spray, evaluated 3 days after inoculation, read-out: efficacy
# pest or weed control at 100 ppm values compiled below

Here are 2 compounds together with their reported answers.
Just so you know, measured pest or weed control at 100 ppm for CC(O)(Cn1cncn1)c1cnc(Oc2ccccc2)cc1Cl (stereo not drawn) came out at 90 to 100%

Just so you know, measured pest or weed control at 100 ppm for `C[C@@](O)(Cn1cncn1)c1cnc(Oc2ccc(Cl)cc2)cc1C(F)(F)F` came out at 90 to 100%

Others:
Just so you know, measured pest or weed control at 100 ppm for Cc1ccc(Oc2ccc(C(O)Cn3cncn3)c(Cl)n2)cc1Cl (stereo not drawn) came out at 90 to 100%

====

# LogP values compiled below
assay: Measurement of LogP values by HPLC on reversed phase columns (EEC directive 79/831 Annex V.A8); assay type: physicochemical
Marks after values point to notes of the source that are not given here.

Just so you know, measured LogP for `CC(=O)c1cnc(Oc2ccc(C(F)(F)F)cc2)cc1Cl` came out at 3.87^[a]

Others:
Just so you know, measured LogP for `O=C(Cn1cncn1)c1ncc(Oc2ccc(Cl)cc2)nc1Cl` came out at 2.54^[a]

Just so you know, measured LogP for `O=C(CBr)c1ccc(Oc2ccc(Br)cc2)nc1C(F)(F)F` came out at 4.23^[a]

Just so you know, measured LogP for OC(Cn1cncn1)(c1ccc(Oc2ccc(Br)cc2)nc1C(F)(F)F)C1CC1 (single isomer, unassigned) [Example 1.84] came out at 3.41^[a]

Just so you know, measured LogP for `CC(=O)c1ccc(Oc2ccc(C(F)F)cc2)nc1Cl` came out at 3.15^[a]

Just so you know, measured LogP for CC(O)(Cn1cncn1)c1ccc(Oc2ccc(Cl)cc2)nc1C(F)(F)F (stereo not drawn) [I.67] came out at 2.68^[a]

Just so you know, measured LogP for `O=C(Cn1cncn1)c1cnc(Oc2ccc(C(F)F)cc2)cc1C(F)(F)F` came out at 2.80^[a]

Just so you know, measured LogP for OC(Cn1cncn1)c1ccc(Oc2ccccc2)nc1Cl (racemic) came out at 1.98^[a]

Just so you know, measured LogP for `O=C(Cn1cncn1)c1ccc(Oc2ccc(Cl)cc2)nc1Cl` came out at 2.66^[a]

====

# LogP values compiled below
test: Measurement of LogP values by HPLC on reversed phase columns (EEC directive 79/831 Annex V.A8); type: physicochemical
Marks after values point to notes of the source that are not given here.

Here are 5 compounds together with their reported answers.
Just so you know, measured LogP for OC(Cn1cncn1)c1cnc(Oc2ccc(S(F)(F)(F)(F)F)cc2)cc1C(F)(F)F (single isomer, unassigned) [I.86] came out at 3.11^[a]

Just so you know, measured LogP for CC(O)(Cn1cncn1)c1ccc(Oc2ccc(S(F)(F)(F)(F)F)cc2)nc1C(F)(F)F (stereo not drawn) [I.62] came out at 3.25^[a]

Just so you know, measured LogP for CC(O)(Cn1cncn1)c1cnc(Oc2ccc(Cl)cc2)cc1Cl (racemic) [I.08] came out at 2.50^[a]

Just so you know, measured LogP for O=C(c1ccc(Oc2ccc(C(F)F)cc2)nc1C(F)(F)F)C1CC1 [V.44] came out at 3.80^[a]

Just so you know, measured LogP for OC(Cn1cncn1)c1ccc(Oc2ccc(Cl)cc2F)nc1C(F)(F)F (stereo not drawn) [I.70] came out at 2.78^[a]

Others:
Just so you know, measured LogP for OC(Cn1cncn1)c1cnc(Oc2ccc(C(F)F)cc2)cc1C(F)(F)F (stereo not drawn) [I.55] came out at 2.55^[a]

Just so you know, measured LogP for CC(=O)c1cnc(Oc2ccc(C(F)F)cc2)cc1C(F)(F)F [V.04] came out at 3.62^[a]

Just so you know, measured LogP for CC(O)(Cn1cncn1)c1ccc(Oc2ccc(F)cc2)nc1Oc1ccc(F)cc1 (stereo not drawn) [I.77] came out at 3.13^[a]

Just so you know, measured LogP for O=C(Cn1cncn1)c1cnc(Oc2ccc(C(F)(F)F)cc2)cc1Cl [VII.40] came out at 2.92^[a]

====

test: Measurement of LogP values by HPLC on reversed phase columns (EEC directive 79/831 Annex V.A8); type: physicochemical
Marks after values point to notes of the source that are not given here.
ENDPOINT: LogP

Here are 5 molecules together with their reported answers.
Just so you know, measured LogP for `O=C(CCl)c1ccc(Oc2ccc(C(F)(F)F)cc2)nc1C(F)(F)F` came out at 4.19^[a]

Just so you know, measured LogP for `O=C(Cn1cncn1)c1ccc(Oc2ccc(OC(F)(F)F)cc2)nc1C(F)(F)F` came out at 2.95^[a]

Just so you know, measured LogP for FC(F)c1ccc(Oc2ccc(C3(C4CC4)CO3)c(C(F)(F)F)n2)cc1 (centres unmarked) came out at 4.49^[a]

Just so you know, measured LogP for CC(O)(Cn1cncn1)c1ccc(Oc2ccc(Cl)cc2)nc1Cl (racemic) [I.09] came out at 2.66^[a]

Just so you know, measured LogP for `CCC(=O)c1ccc(Oc2ccc(Cl)cc2)nc1C(F)(F)F` came out at 4.20^[a]

Others:
Just so you know, measured LogP for `O=C(Cn1cncn1)c1cnc(Oc2ccc(OC(F)(F)F)cc2)cc1C(F)(F)F` came out at 3.27^[a]

====

assay: Measurement of LogP values by HPLC on reversed phase columns (EEC directive 79/831 Annex V.A8); format: physicochemical; settings: reversed phase HPLC column, method [a]; compounds of formula (VI), Table 3
ENDPOINT: chromatographic logP
Response field accepts a number only; no unit should be typed.

Just so you know, measured chromatographic logP for O=C(CCl)c1ccc(Oc2ccc(Cl)cc2)nc1C(F)(F)F [VI.01] came out at 4.01

====

system: Septoria tritici; assay: Example C: in vivo preventive test on Septoria tritici (leaf spot on wheat); settings: Zymoseptoria tritici, 576 h; 500 ppm of active ingredient; wheat plants, preventive spray; evaluated 24 days after inoculation; read-out: efficacy
ENDPOINT: pest or weed control at 500 ppm

Here are 2 compounds together with their reported answers.
Just so you know, measured pest or weed control at 500 ppm for C[C@@](O)(Cn1cncn1)c1cnc(Oc2ccc(Cl)cc2)cc1C(F)(F)F [I.45] came out at 90 to 100%

Just so you know, measured pest or weed control at 500 ppm for CC(O)(Cn1cncn1)c1ccc(Oc2ccc(C(F)F)cc2)nc1Cl (stereo not shown) [I.39] came out at 90 to 100%

Others:
Just so you know, measured pest or weed control at 500 ppm for Cc1ccc(Oc2ccc(C(O)Cn3cncn3)c(Cl)n2)cc1Cl (stereo not shown) [I.16] came out at 80 to 89%

Just so you know, measured pest or weed control at 500 ppm for OC(Cn1cncn1)c1cnc(Oc2ccc(S(F)(F)(F)(F)F)cc2)cc1C(F)(F)F (stereo not shown) [I.36] came out at 80 to 89%

Just so you know, measured pest or weed control at 500 ppm for OC(Cn1cncn1)c1cnc(Oc2ccc(C(F)(F)F)cc2)cc1C(F)(F)F (stereo not shown) [I.47] came out at 90 to 100%

Just so you know, measured pest or weed control at 500 ppm for Cc1ccc(Oc2ccc(C(C)(O)Cn3cncn3)c(Cl)n2)cc1Cl (stereo not shown) [I.29] came out at 90 to 100%

Just so you know, measured pest or weed control at 500 ppm for CC(O)(Cn1cncn1)c1cnc(Oc2ccccc2)cc1Cl (stereo not shown) [I.05] came out at 90 to 100%
